Would you mind telling me the reported PBM binding z-score of each entry?
# Tested on: PPARg:RXRa IVT, anti-PPARg (NR concentration 270 nM, RXRa partner concentration 90 nM)
# Assay Info: PBM binding z-score (relative to random genomic background probes); higher = stronger binding; sequences stand for … in GC…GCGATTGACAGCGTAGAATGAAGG
Form rule: numeric answer, no unit written next to it.

Name the recorded PBM binding z-score of the sequence listed here: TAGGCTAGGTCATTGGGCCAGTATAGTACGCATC
3.99

Name the recorded PBM binding z-score of the sequence listed here: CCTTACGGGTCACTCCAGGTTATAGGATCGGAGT
4

Name the recorded PBM binding z-score of the sequence listed here: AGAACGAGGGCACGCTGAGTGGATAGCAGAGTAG
3.9

Name the recorded PBM binding z-score of the sequence listed here: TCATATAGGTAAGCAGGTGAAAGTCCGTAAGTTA
3.94
